Origin of measurements: paper PMC11400632

Target: human JMJD7 (Homo sapiens)
Construct: human JMJD7 (residues 1–316) with an N‐terminal His6‐tag; His6 (N); made in house; host or cells: Escherichia coli Rosetta (DE3)
Test: LC-MS assay of JMJD7-catalyzed hydroxylation/oxidation of DRG1 peptides
Type: biochemical
Conditions: 2 μM JMJD7, 10 μM peptide, 10 μM 2OG, 10 μM FAS, 100 μM LAA
// reported degree of oxidation (+16 Da) of cysteine/methionine analog peptides by JMJD7 for each item listed

SUBSTANCE	TEST RESULT
ARTQKNhMetATAHHLGLLKARLAKLRR [DRG1‐hMet, 25-mer DRG1 (16–40) peptide with homomethionine at position 22]	~ 89%

Alright, here's another substance for you.
Problem: Entry under review: ARTQKNMetATAHHLGLLKARLAKLRR [DRG1‐Met] . Reported degree of oxidation (+16 Da) of cysteine/methionine analog peptides by JMJD7?
Solution: ~ 86%

* * *

Biological target: human JMJD7 (Homo sapiens, UniProt P0C870)
Construct: human JMJD7 (residues 1–316) with an N‐terminal His6‐tag; His6 (N); made in house; host or cells: Escherichia coli Rosetta (DE3)
Sequence (P0C870 whole entry, the tested form may be a part): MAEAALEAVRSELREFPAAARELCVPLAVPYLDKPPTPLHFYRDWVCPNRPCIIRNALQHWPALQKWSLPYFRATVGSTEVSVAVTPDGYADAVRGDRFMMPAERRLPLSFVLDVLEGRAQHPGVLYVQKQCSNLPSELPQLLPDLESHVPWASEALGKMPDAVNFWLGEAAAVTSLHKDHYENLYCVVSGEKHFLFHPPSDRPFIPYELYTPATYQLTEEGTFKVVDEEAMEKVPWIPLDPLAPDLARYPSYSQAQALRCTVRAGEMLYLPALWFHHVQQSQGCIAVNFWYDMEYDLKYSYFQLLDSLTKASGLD
Assay: MALDI-TOF MS JMJD7 inhibition assay
Assay type: biochemical
Details: same assay conditions but without preincubation; read-out: IC50 (JMJD7 inhibition, without preincubation)
Ends that are not written are not given here.
OBSERVATION TYPE: IC50 (µM)
All answers are understood in µM, so give the number only.

Problem: Entry under review: ARTQKNCATAHHLGLLKARLAKLRR-NH2 [DRG1‐Cys] . Reported IC50?
Solution: 16

* * *

Target: human JMJD7 (Homo sapiens, UniProt P0C870)
Construct: human JMJD7 (residues 1–316) with an N‐terminal His6‐tag; His6 (N); made in house; host or cells: Escherichia coli Rosetta (DE3)
Assay: LC-MS assay of JMJD7-catalyzed hydroxylation/oxidation of DRG1 peptides
Format: biochemical
Settings: 2 μM JMJD7, 10 μM peptide, 20 μM 2OG, 10 μM FAS, 100 μM LAA, pH 7.5, 2 h incubation
Square brackets hold non-standard residues; d marks the D form. Ends that are not written are not given here. Nle = CCCC[C@H](N)C(=O)O
// reported extent of hydroxylation by JMJD7 at higher 2OG concentration for each item listed

Answered cases to consult:
SUBSTANCE	TEST RESULT
ARTQKNLysMeATAHHLGLLKARLAKLRR [DRG1‐LysMe, 25-mer DRG1 (16–40) peptide with LysMe at position 22]	~ 7%
ARTQKNH[Nle]ATAHHLGLLKARLAKLRR [DRG1‐HNle, 25-mer DRG1 (16–40) peptide with hydroxynorleucine at position 22]	~ 56%
ARTQKND-LysATAHHLGLLKARLAKLRR [DRG1‐D‐Lys, 25-mer DRG1 (16–40) peptide with epimeric D-lysine at position 22]	~ 6%
ARTQKNhLysATAHHLGLLKARLAKLRR [DRG1‐hLys, 25-mer DRG1 (16–40) peptide with hLys at position 22]	~ 5%

Alright, here's another substance for you.
Problem: Entry under review: ARTQKNLysATAHHLGLLKARLAKLRR [DRG1‐Lys, 25-mer DRG1 fragment peptide (residues 16–40), C-terminal amide, Lys at position 22; JMJD7 substrate, reference compound] . Reported extent of hydroxylation by JMJD7 at higher 2OG concentration?
Solution: ~ 98%

* * *

Biological target: human JMJD7 (Homo sapiens, UniProt P0C870)
Construct: human JMJD7 (residues 1–316) with an N‐terminal His6‐tag; His6 (N); made in house; host or cells: Escherichia coli Rosetta (DE3)
Test: MALDI-TOF MS JMJD7 inhibition assay
Type: biochemical
Conditions: 200 nM JMJD7 preincubated 15 min with peptide (1 nM–150 μM); 5 μM DRG1-Lys (17–40) substrate, 10 μM 2OG, 25 min, room temperature, Tris pH 7.5, MALDI MS; duplicate (n = 2), ± SE; read-out: IC50 (JMJD7 inhibition, with 15 min preincubation)
Ends that are not written are not given here.
OBSERVATION TYPE: pIC50
// pIC50: -log10(molar conc.)

Problem: Notebook entry, human JMJD7 (Homo sapiens, UniProt P0C870) assay: pIC50 of ARTQKNCATAHHLGLLKARLAKLRR-NH2 [DRG1‐Cys] = ?
Solution: 5.90

* * *

Molecular target: human JMJD7 (Homo sapiens)
Construct: human JMJD7 (residues 1–316) with an N‐terminal His6‐tag; His6 (N); made in house; host or cells: Escherichia coli Rosetta (DE3)
Experiment: LC-MS assay of JMJD7-catalyzed hydroxylation/oxidation of DRG1 peptides
Format: biochemical
Conditions: standard conditions: 2 μM JMJD7, 10 μM DRG1 peptide, 10 μM 2OG, 10 μM FAS, 100 μM LAA, Tris pH 7.5, 2 h, room temperature
Square brackets hold non-standard residues; d marks the D form. Ends that are not written are not given here. Nle = CCCC[C@H](N)C(=O)O
// reported extent of hydroxylation (+16 Da) by JMJD7 for each item listed

Answered cases to consult:
SUBSTANCE	TEST RESULT
ARTQKNLysEATAHHLGLLKARLAKLRR [DRG1‐LysE, 25-mer DRG1 (16–40) peptide with (E)-dehydrolysine at position 22]	90%
ARTQKNH[Nle]ATAHHLGLLKARLAKLRR [DRG1‐HNle, 25-mer DRG1 (16–40) peptide with hydroxynorleucine at position 22]	~ 24%

Problem: Entry under review: ARTQKNLysATAHHLGLLKARLAKLRR [DRG1‐Lys, 25-mer DRG1 fragment peptide (residues 16–40), C-terminal amide, Lys at position 22; JMJD7 substrate, reference compound] . Reported extent of hydroxylation (+16 Da) by JMJD7?
Solution: ~ 78%
